Hey, just so you know, these numbers are from patent US12370143B2.

Assay: Particle size of nucleic acid lipid particles (Luc2-siRNA)
Assay type: physicochemical
Settings: compound/DSPC/cholesterol/DMG-PEG2000 50/10/38.5/1.5
MEASURE_NAME: Particle size (nm)

Below, each entry is followed by its recorded Particle size (nm) result.
>  <COMPOUND>
CCCCCCCCC(CCCCCC)COC(=O)CCCCCCCCC(CCCCCC)OC(=O)OCCN(CCO)CCN(CC)CC (centres unmarked)

>  <Particle size (nm)>
142

$$$$
>  <COMPOUND>
CCCCCCCCCCCC(=O)OCCN(CCOC(=O)OC(CCCCCC)CCCC(=O)OCC(CCCC)CCCCCC)CCN(CC)CC (centres unmarked)

>  <Particle size (nm)>
62.4

$$$$

[I] CCCCCCCCC(CCCCCC)COC(=O)CCC(CCCCCC)OC(=O)OCCN(CCN(CC)CC)C(C)C (centres unmarked)
[II] CCCCCCC(CCCC)COC(=O)CCCCCCCCC(CCCCCC)OC(=O)OCCN(CCO)CCCN(CC)CC (centres unmarked)
Pick one: I or II . Which one has the lower reported Particle size (nm)? Choose, then provide that item's label.
I

[I] CCCCC/C=C\C/C=C\CCCCCCCCC(CCCCCCCC/C=C\C/C=C\CCCCC)OC(=O)OCCN(CCCC)CCN(C)C
[II] CCCCCC/C=C\COC(=O)OCCCCCCN(CCCCCCOC(=O)OC/C=C\CCCCCC)C(=O)OCCN(C)CCN(C)C
So which one has the bigger Particle size (nm) here, I or II ? Choose, then provide that item's label.
II
(II: 219.0 nm, I: 94.2 nm)
